Numbers sourced from patent US8658604B2.

study-system: Chymase, from human skin (Homo sapiens, UniProt P23946)
Sequence (P23946 22-247): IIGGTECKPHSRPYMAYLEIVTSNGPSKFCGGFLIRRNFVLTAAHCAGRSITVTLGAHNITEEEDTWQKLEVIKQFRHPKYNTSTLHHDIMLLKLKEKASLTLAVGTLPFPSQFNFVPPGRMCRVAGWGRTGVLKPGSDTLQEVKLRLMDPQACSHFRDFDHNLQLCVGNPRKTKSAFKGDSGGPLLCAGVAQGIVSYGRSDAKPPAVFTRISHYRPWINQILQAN
experiment-notes: Enzymatic assay, chymase
Where a SMILES comes first, the peptide text is derived from it.
For each record, write down the corresponding Chymase at 100 μM %.
Give a bare numeral; the unit % is implied.

Prompt line: Please look at this molecule and report its Chymase at 100 μM %: CC[C@H](C)[C@@H]1NC(=O)[C@@H]2CCCN2C(=O)[C@H]2CCCN2C(=O)[C@H](CCCNC(=N)N)NC(=O)[C@@H]2CSSC[C@H](NC1=O)C(=O)N[C@@H]([C@@H](C)O)C(=O)N[C@@H](CCCCN)C(=O)N[C@@H](CO)C(=O)N[C@@H](CC(=O)O)C(=O)N1CCC[C@H]1C(=O)N1CCC[C@H]1C(=O)N[C@@H](CCC(N)=O)C(=O)N2 [Ex. 55] (HELM PEPTIDE1{I.C.T.K.S.D.P.P.Q.C.R.[dP].P}$PEPTIDE1,PEPTIDE1,2:R3-10:R3|PEPTIDE1,PEPTIDE1,1:R1-13:R2$$$V2.0)
Response line: 27.6

Prompt line: Please supply the value of reported Chymase at 100 μM % for the item CC[C@H](C)[C@@H]1NC(=O)[C@@H]2CCCN2C(=O)[C@H]2CCCN2C(=O)[C@H](CCCNC(=N)N)NC(=O)[C@@H]2CSSC[C@H](NC1=O)C(=O)N[C@@H]([C@@H](C)O)C(=O)N[C@@H](CCCCN)C(=O)N[C@@H](CO)C(=O)N[C@@H](CC(=O)O)C(=O)N1CCC[C@H]1C(=O)N1CCC[C@H]1C(=O)N[C@@H](CCC(N)=O)C(=O)N2 [Ex. 17] (HELM PEPTIDE1{I.C.T.K.S.D.P.P.Q.C.R.[dP].P}$PEPTIDE1,PEPTIDE1,2:R3-10:R3|PEPTIDE1,PEPTIDE1,1:R1-13:R2$$$V2.0)
Response line: 27.6
